assay: Stability in rat liver microsomes assessed as compound remaining at 5 uM measured after 1 hr in presence of alamethicin,uridine 5'-diphospho-glucuronic acid,glutathione,NADPH by capillary-HPLC/MS analysis (reference value: 96.3 %); format: ADME; conditions: read-out: Stability
VALUE TYPE: remaining at 1 h, 5 µM

Entry `Cc1nc(NC(=O)N2CCC[C@H]2C(N)=O)sc1-c1ccnc(C(C)(C)C)n1` , remaining at 1 h, 5 µM reported as 87.2%

====

test: Stability in rat hepatocytes assessed as compound remaining at 1 uM measured after 40 to 60 mins by capillary-HPLC/MS analysis; format: ADME, cell-based, Hepatocyte; conditions: read-out: Stability
VALUE TYPE: remaining at 1 µM (%)
Write down the numeric answer in % and omit the unit.

Entry `[2H]C([2H])([2H])C(c1nccc(-c2sc(NC(=O)N3CCC[C@H]3C(N)=O)nc2C)n1)(C([2H])([2H])[2H])C([2H])([2H])[2H]` , remaining at 1 µM reported as 94.5

====

assay: Stability in Sprague-Dawley rat blood assessed as compound remaining at 3 mg/kg, po administered in cassette mode measured after 0.5 hrs by capillary-HPLC/MS analysis; type: ADME, organism-based; details: whole blood, read-out: Stability
Kindly state remaining at 0.5 h for each of the entries shown.

Entry `[2H]C([2H])([2H])C(c1nccc(-c2sc(NC(=O)N3CCC[C@H]3C(N)=O)nc2C)n1)(C([2H])([2H])[2H])C([2H])([2H])[2H]` , remaining at 0.5 h reported as 91%

Entry `Cc1nc(NC(=O)N2CCC[C@H]2C(N)=O)sc1-c1ccnc(C(C)(C)C)n1` , remaining at 0.5 h reported as 74%

====

assay: Intrinsic clearance in mouse liver microsomes at 1 uM after 5 to 30 mins in presence of NADPH by LC-MS/MS analysis; type: ADME; details: read-out: CLH
Kindly state microsomal CLint at 1 µM for each of the entries shown.
Write down the numeric answer in µL/min/mg and omit the unit.

Entry `[2H]C([2H])([2H])C(c1nccc(-c2sc(NC(=O)N3CCC[C@H]3C(N)=O)nc2C)n1)(C([2H])([2H])[2H])C([2H])([2H])[2H]` , microsomal CLint at 1 µM reported as 19

Entry `Cc1nc(NC(=O)N2CCC[C@H]2C(N)=O)sc1-c1ccnc(C(C)(C)C)n1` , microsomal CLint at 1 µM reported as 35

====

test: Stability in Sprague-Dawley rat blood assessed as compound remaining at 1 mg/kg, iv administered in cassette mode measured after 0.5 hrs by capillary-HPLC/MS analysis; assay type: ADME, organism-based; details: whole blood, read-out: Stability
VALUE TYPE: remaining at 0.5 h (%)
Write down the numeric answer in % and omit the unit.

Entry `[2H]C([2H])([2H])C(c1nccc(-c2sc(NC(=O)N3CCC[C@H]3C(N)=O)nc2C)n1)(C([2H])([2H])[2H])C([2H])([2H])[2H]` , remaining at 0.5 h reported as 95

Entry `Cc1nc(NC(=O)N2CCC[C@H]2C(N)=O)sc1-c1ccnc(C(C)(C)C)n1` , remaining at 0.5 h reported as 90

====

experiment: Stability in rat liver microsomes assessed as compound remaining at 5 uM measured immediately after compound addition in presence of alamethicin,uridine 5'-diphospho-glucuronic acid,glutathione,NADPH by capillary-HPLC/MS analysis (reference value: 96.3 %); type: ADME; details: read-out: Stability
VALUE TYPE: remaining at 0 min, 5 µM (%)
Write down the numeric answer in % and omit the unit.

Entry `Cc1nc(NC(=O)N2CCC[C@H]2C(N)=O)sc1-c1ccnc(C(C)(C)C)n1` , remaining at 0 min, 5 µM reported as 98.9
